- TEST_PROTOCOL: A CellTox Green Cytotoxicity Assay to monitor cytotoxicity in HepG2 cells - 0 hour (AID 1224882); note: nearly all actives have a fitted effect of over 35% in size
- TEST_CONTEXT: CellTox Green fluorescence; series mostly up to 76.8 µM
Active and inactive are the calls of the source. Calls come from the whole dose curve; as a rule, active = well fitted activation curve with a large enough effect in the repeat runs; inconclusive = weak or mixed curves; inactive = flat fitted curve, though single readings scatter.
Bench note: report the call from YES (active), NO (inactive)

Request: Call for entry Oc1cccc(O)c1O :
Result: NO

Request: Test call, this compound: CCOC(=O)c1ccc(OCCN2C[C@H](O)[C@@H](O)[C@H](O)[C@H]2CO)cc1
Result: NO

Request: Short answer needed: outcome of this test for Cc1cc2c(OCC(CNC(C)(C)C)OC(=O)c3ccccc3)cccc2[nH]1 (stereo unspecified) ?
Result: NO

Request: Just curious, what result did Cc1cc(=O)c2c(O)c3c(O)cc(=O)c4c3c3c(cc(O)c1c23)C(C)(C)C=4O get here?
Result: YES

Request: Entry Clc1cc(Cl)nc(Cl)n1 : call = ?
Result: NO

Request: Just curious, what result did C[C@@H]1CC(=O)NN=C1c1ccc(NN=C(C#N)C#N)cc1 get here?
Result: NO
